Reference source for all entries: ChEMBL document CHEMBL3865831

Tested on: Hepatitis B virus
TEST NAME: Antiviral activity against Hepatitis B virus infected human HepG2.2.15 cells assessed as inhibition of HBeAg secretion measured after 96 hrs by ELISA
Assay type: functional
ASSAY CONDITIONS: HepG2.2.15, 96 h
QUANTITY NAME: IC50 (µM)

Example molecules with recorded IC50:
{"MOLECULE": "CC(C)(C)C(=O)OCOP(=O)(COCCn1cnc2c(N)ncnc21)OCOC(=O)C(C)(C)C [ADEFOVIR DIPIVOXIL]", "QUANTITY NAME": "IC50", "OBSERVED RESULT": 290}
{"MOLECULE": "C[C@@]12C(=O)NC(=O)[C@]1(C)[C@H]1CC[C@@H]2O1", "QUANTITY NAME": "IC50", "OBSERVED RESULT": 42}
{"MOLECULE": "C[C@@]12C(=O)N(CCc3ccc(O)cc3)C(=O)[C@]1(C)[C@H]1CC[C@@H]2O1", "QUANTITY NAME": "IC50", "OBSERVED RESULT": 58}

A: C[C@@]12C(=O)N(CCCCN3C(=O)[C@@]4(C)[C@@H]5CC[C@@H](O5)[C@@]4(C)C3=O)C(=O)[C@]1(C)[C@H]1CC[C@@H]2O1
B: C[C@@]12C(=O)N(CCO)C(=O)[C@]1(C)[C@H]1CC[C@@H]2O1
Problem: # query: argmin of IC50 over A and B Lab note: record the label of whichever item you select.
Solution: A

====

TEST NAME: Toxicity against human HepG2.2.15 cells infected with HBV after 72 hrs by MTT assay
Format: cell-based, HepG2 2.2.15
Recorded CC50 at 72 h by entry

{"MOLECULE": "C[C@@]12C(=O)N(CCc3ccc(O)cc3)C(=O)[C@]1(C)[C@H]1CC[C@@H]2O1", "OBSERVED RESULT": "> 320 µM"}
{"MOLECULE": "CC(C)(C)C(=O)OCOP(=O)(COCCn1cnc2c(N)ncnc21)OCOC(=O)C(C)(C)C [ADEFOVIR DIPIVOXIL]", "OBSERVED RESULT": "> 400 µM"}
{"MOLECULE": "C[C@@]12C(=O)NC(=O)[C@]1(C)[C@H]1CC[C@@H]2O1", "OBSERVED RESULT": "280 µM"}
{"MOLECULE": "C[C@@]12C(=O)N(CCO)C(=O)[C@]1(C)[C@H]1CC[C@@H]2O1", "OBSERVED RESULT": "> 420 µM"}

// next entry
Problem: Bench note: what CC50 at 72 h did C[C@@]12C(=O)N(CCCCN3C(=O)[C@@]4(C)[C@@H]5CC[C@@H](O5)[C@@]4(C)C3=O)C(=O)[C@]1(C)[C@H]1CC[C@@H]2O1 show?
Solution: > 220 µM
